Below, each entry is listed with its recorded MIC strain 19 (E. coli J62-TEM-3 + 4 μg/mL clavulanic acid).
# Tested on: Bacteria
# test.method.notes: MIC determination in combination with β-lactamase inhibitors (constant 4 μg/mL)
# Type: cell-based
# condition.notes: strain 19; E. coli J62-TEM-3 + 4 μg/mL clavulanic acid
measured.property: MIC strain 19 (E. coli J62-TEM-3 + 4 μg/mL clavulanic acid) (µg/mL)

{"columns": ["compound", "value.reported"],
 "data": [
  ["CC1(C)[C@H](NC(=O)/C(=N\\OCCOc2ccc(C(=N)NCCCN)cc2)c2csc(N)n2)C(=O)N1OS(=O)(=O)O [Example 83]", 0.125],
  ["CC1(C)[C@H](NC(=O)/C(=N\\O[C@H](COc2ccc(C(=N)NCCNc3ncccn3)cc2)C(=O)O)c2csc(N)n2)C(=O)N1OS(=O)(=O)O [Example 111]", 8],
  ["CC1(C)[C@H](NC(=O)/C(=N\\OCCOc2ccc(C(=N)NC3CNNC3)cc2)c2csc(N)n2)C(=O)N1OS(=O)(=O)O [Example 92]", 0.5],
  ["CC1(C)[C@H](NC(=O)/C(=N\\O[C@@H](COc2ccc(C(=N)NC3CC3N)cc2)C(=O)O)c2csc(N)n2)C(=O)N1OS(=O)(=O)O (single isomer, unassigned) [Example 100B]", 2],
  ["C[C@H]1[C@H](NC(=O)/C(=N\\OCCOc2ccc(CC(=N)N)cc2)c2csc(N)n2)C(=O)N1S(=O)(=O)O [Example 62]", 1]
]}
